// Ki lookup, one value per entry
# Measured On: Trypsin (Homo sapiens, UniProt P07477+P07478+P35030)
# Method Summary: Inhibitory constant against trypsin determined in Vitro
# Format: protein assay
Hi! Could you send only the number? It should be in nM, unit omitted.

Guide cases for Ki, answers given:
Cc1nc(N)ccc1CC(=O)CN1CCCC[C@H](NS(=O)(=O)c2ccc3c(c2)CCO3)C1=O ... 1678
N=C(N)NCCC[C@@H](C=O)NC(=O)CN1CCCC[C@H](NS(=O)(=O)Cc2ccccc2)C1=O ... 18
N=C(N)c1ccc(CC(=O)CN2CCCC[C@H](NS(=O)(=O)c3ccc4c(c3)CCO4)C2=O)c(F)c1 ... 7.6
N=C(N)c1ccc(CC(=O)CN2CCCC[C@H](NS(=O)(=O)c3ccc4ccccc4c3)C2=O)cc1 ... 12.3
N=C(N)N1CCC(CC(=O)CN2CCCC[C@H](NS(=O)(=O)c3ccccc3)C2=O)CC1 ... 1678

[Q] Give the measured Ki for COC(=O)c1ccccc1CS(=O)(=O)N[C@H]1CCCCN(CC(=O)N[C@H](C=O)CCCNC(=N)N)C1=O
[A] 16

[Q] Give the measured Ki for N=C(N)N1CCC(CC(=O)[C@@H]2Cc3cccc4c3N2C(=O)[C@@H](NS(=O)(=O)c2ccc3c(c2)CCO3)CC4)CC1
[A] 2.5

----------
# Method Summary: Maximum plasma concentration was determined as in dogs at 1 mg/kg oral dosing Cmax; 0.05-0.2 ug/mL
# Type: ADME, organism-based, Canis lupus familiaris
# Set-up: dose 1 mg/kg, route oral
# Condition Parameters: dog
Quantity Kind: Cmax

[Q] Give the measured Cmax for N=C(N)N1CCC(CC(=O)[C@@H]2Cc3cccc4c3N2C(=O)[C@@H](NS(=O)(=O)c2ccc3c(c2)CCO3)CC4)CC1
[A] ~50 ng/mL

----------
# Measured On: Prothrombin (Homo sapiens)
I'd appreciate it if you marked entries met when Ki is lower than 10 nM and not met when it is not.

Some entries whose results are on file:
COc1ccc(S(=O)(=O)N[C@H]2CCCCN(CC(=O)Cc3ccc(C(=N)N)cc3)C2=O)cc1OC ... not met
N=C(N)c1ccc(CC(=O)CN2CCCC[C@H](NS(=O)(=O)c3ccc4c(c3)CCO4)C2=O)c(F)c1 ... not met
COc1ccc(OC)c(S(=O)(=O)N[C@H]2CCCCN(CC(=O)Cc3ccc(C(=N)N)cc3)C2=O)c1 ... met
N=C(N)N1CCC(CC(=O)[C@@H]2Cc3cccc4c3N2C(=O)[C@@H](NS(=O)(=O)c2ccc3c(c2)CCO3)CC4)CC1 ... not met

[Q] Threshold test, Ki < 10 nM: Cc1nc(N)ccc1CC(=O)CN1CCC[C@H](NS(=O)(=O)Cc2ccccc2)C1=O
[A] not met

[Q] Threshold test, Ki < 10 nM: N[C@H]1CC[C@H](CC(=O)CN2CCCC[C@H](NS(=O)(=O)c3ccc4c(c3)CCO4)C2=O)CC1
[A] not met

[Q] Threshold test, Ki < 10 nM: N[C@H]1CC[C@H](CC(=O)CN2CCCC[C@H](NS(=O)(=O)Cc3ccccc3)C2=O)CC1
[A] not met

[Q] Threshold test, Ki < 10 nM: COC(=O)c1ccccc1CS(=O)(=O)N[C@H]1CCCCN(CC(=O)N[C@@H](CCCNC(=N)N)C(=O)O)C1=O
[A] met

----------
# Method Summary: Oral bioavailability in dog (fasted)
# Format: ADME, organism-based, Canis lupus familiaris
# Condition Parameters: in vivo
// bioavailability lookup, one value per entry
Hi! Could you send only the number? It should be in %, unit omitted.

COC(=O)c1ccccc1CS(=O)(=O)N[C@H]1CCCCN(CC(=O)N[C@H](C=O)CCCNC(=N)N)C1=O ... 67

--- query ---
[Q] Give the measured bioavailability for N=C(N)NCCC[C@@H](C=O)NC(=O)CN1CCCC[C@H](NS(=O)(=O)Cc2ccccc2)C1=O
[A] 66

----------
// Ki lookup, one value per entry
# Measured On: Prothrombin (Homo sapiens, UniProt P00734)
Hi! Could you send only the number? It should be in nM, unit omitted.

Guide cases for Ki, answers given:
N=C(N)c1ccc(CC(=O)CN2CCCC[C@H](NS(=O)(=O)c3ccc4c(c3)CCO4)C2=O)s1 ... 0.6
COc1ccc(OC)c(S(=O)(=O)N[C@H]2CCCCN(CC(=O)CC3CCN(C(=N)N)CC3)C2=O)c1 ... 167
N=C(N)c1ccc(CC(=O)CN2CCCC[C@H](NS(=O)(=O)Cc3ccccc3)C2=O)cc1 ... 19.4

[Q] Give Ki only, for N=C(N)c1ccc(CC(=O)CN2C(=O)[C@@H](NS(=O)(=O)c3ccc4c(c3)CCO4)CCc3ccccc32)cc1 , using Prothrombin (Homo sapiens, UniProt P00734) data.
[A] 14.4

[Q] Give Ki only, for N=C(N)c1ccc(CC(=O)CN2CCCC[C@H](NS(=O)(=O)c3ccc4c(c3)CCO4)C2=O)cc1 , using Prothrombin (Homo sapiens, UniProt P00734) data.
[A] 6.2

[Q] Give Ki only, for O=C(Cc1ccc2[nH]ncc2c1)CN1CCCC[C@H](NS(=O)(=O)c2ccc3c(c2)CCO3)C1=O , using Prothrombin (Homo sapiens, UniProt P00734) data.
[A] 283

[Q] Give Ki only, for N=C(N)NCCC[C@H](NC(=O)CN1CCCC[C@H](NS(=O)(=O)Cc2ccccc2)C1=O)C(=O)O , using Prothrombin (Homo sapiens, UniProt P00734) data.
[A] 0.54

[Q] Give Ki only, for N=C(N)N1CCC(CC(=O)CN2CCCC[C@H](NS(=O)(=O)c3ccc4c(c3)CCO4)C2=O)CC1 , using Prothrombin (Homo sapiens, UniProt P00734) data.
[A] 23.8

[Q] Give Ki only, for N=C(N)N1CCC(CC(=O)CN2C(=O)[C@@H](NS(=O)(=O)c3ccc4c(c3)CCO4)CCc3ccccc32)CC1 , using Prothrombin (Homo sapiens, UniProt P00734) data.
[A] 61

[Q] Give Ki only, for N=C(N)N1CCC(CC(=O)CN2CCCC[C@H](NS(=O)(=O)c3ccccc3)C2=O)CC1 , using Prothrombin (Homo sapiens, UniProt P00734) data.
[A] 71.4
